Where do the numbers come from? From PubChem BioAssay AID1159580.

ASSAY_DETAILS: chemical genetic growth profiling, strain panel (AID 1159580);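 also: tested at 20 µM; growth read once vehicle control cultures reached saturation at 30 °C; 1 = growth at the plate median or of vehicle wells; lower values mean less growth of the strain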
MEASUREMENT_CONTEXT: S. cerevisiae deletion strains, growth OD, locus YKR001C, strain vps1, hits give low values
The campaign covered roughly 5,500 compounds. About 2,000 (36%) were called active. Inconclusive results (about 18%) are left out. Some of the results follow.
METRIC: normalized growth
Write no unit; give the number alone.

Determine from records and report normalized growth for O=C(O)C1CC([C@@H]2CCCCN2)CN2CCCCC12 (some centres undefined) 1.02

Determine from records and report normalized growth for `O=C1C[C@@H](c2ccc(O)cc2)Oc2cc(O)cc(O)c21` 0.999

Determine from records and report normalized growth for COc1ccc(C2CC(=O)c3ccc(OC)cc3O2)cc1 (centres undefined) 0.876

Determine from records and report normalized growth for `NC(=O)N1c2ccccc2CC(=O)c2ccccc21` 0.969

Determine from records and report normalized growth for `NC(N)=Nc1nc(CSCCC(N)=NS(N)(=O)=O)cs1` 1.01

Determine from records and report normalized growth for C=C1CC[C@H](O)C/C1=C/C=C1\CCC[C@]2(C)C([C@H](C)/C=C/[C@H](C)C(C)C)CC[C@@H]12 (some centres undefined) 0.949

Determine from records and report normalized growth for CC(=O)O[C@]1(C(C)=O)CCC2C3C=C(C)C4=CC(=O)CCC4(C)C3CCC21C (some centres undefined) 0.81

Determine from records and report normalized growth for `Cc1c(O)cc(O)c2c(=O)c(-c3ccc(O)cc3)coc12` 0.992

Determine from records and report normalized growth for `O=C(/C=C/C=C/c1ccc2c(c1)OCO2)N1CCCCC1` 0.796

Determine from records and report normalized growth for `CCc1nc(N)nc(N)c1-c1ccc(Cl)cc1` 0.985

Determine from records and report normalized growth for `COc1c2c(c(CC=C(C)C)c3oc(=O)c(-c4ccc(O)cc4)c(O)c13)OC(C)(C)C=C2` 0.381

Determine from records and report normalized growth for `O=C1C[C@@H](c2ccccc2)Oc2cc(O)cc(O)c21` 0.878

Determine from records and report normalized growth for `COc1ccc(-c2c(O)c3cc4c(c(CC=C(C)C)c3oc2=O)OC(C)(C)CC4)cc1` 1.02

Determine from records and report normalized growth for `C[C@@H]1O[C@@H](O[C@H]2[C@@H](Oc3cc(O)c4c(c3)O[C@H](c3ccc(O)cc3)CC4=O)O[C@H](CO)[C@@H](O)[C@@H]2O)[C@H](O)[C@H](O)[C@H]1O` 1.01
